target: MKP1 (Homo sapiens); construct: made in house; host or cells: E. coli DH5a; assay: In vitro PTPase assay, GST/MKP1; format: biochemical; conditions: section VII comparison
Sequence (P28562 13-367 limits assumed, species assumed): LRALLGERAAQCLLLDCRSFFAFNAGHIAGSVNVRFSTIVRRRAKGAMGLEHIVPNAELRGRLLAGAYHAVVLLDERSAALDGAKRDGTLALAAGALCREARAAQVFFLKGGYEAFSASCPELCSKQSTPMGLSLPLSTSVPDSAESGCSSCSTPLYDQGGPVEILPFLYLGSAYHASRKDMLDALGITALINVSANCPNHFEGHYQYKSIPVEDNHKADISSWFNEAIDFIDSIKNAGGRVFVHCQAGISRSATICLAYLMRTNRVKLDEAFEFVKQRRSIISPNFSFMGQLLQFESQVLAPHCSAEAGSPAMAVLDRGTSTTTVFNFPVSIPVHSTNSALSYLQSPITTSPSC
Readout name: inhibition of MKP1

N=C(N)c1ccc(OCCCCCOc2ccc(C(=N)N)cc2)cc1 [pentamidine] :: substantial inhibition
c1ccc([C@H]2CN3CCSC3=N2)cc1 [levamisole] :: substantial inhibition
CC(=O)N1CCN(c2ccc(OCC3COC(Cn4ccnc4)(c4ccc(Cl)cc4Cl)O3)cc2)CC1 (stereo not shown) [ketoconazole] :: substantial inhibition

Origin of the recorded values: patent US20080089860A1
